// provenance: patent US20210155689A1

Target: T1, human LAG-3 on cells (HEK293-hLAG-3 stable cell line) (human, UniProt P18627 23-525)
T1 sequence: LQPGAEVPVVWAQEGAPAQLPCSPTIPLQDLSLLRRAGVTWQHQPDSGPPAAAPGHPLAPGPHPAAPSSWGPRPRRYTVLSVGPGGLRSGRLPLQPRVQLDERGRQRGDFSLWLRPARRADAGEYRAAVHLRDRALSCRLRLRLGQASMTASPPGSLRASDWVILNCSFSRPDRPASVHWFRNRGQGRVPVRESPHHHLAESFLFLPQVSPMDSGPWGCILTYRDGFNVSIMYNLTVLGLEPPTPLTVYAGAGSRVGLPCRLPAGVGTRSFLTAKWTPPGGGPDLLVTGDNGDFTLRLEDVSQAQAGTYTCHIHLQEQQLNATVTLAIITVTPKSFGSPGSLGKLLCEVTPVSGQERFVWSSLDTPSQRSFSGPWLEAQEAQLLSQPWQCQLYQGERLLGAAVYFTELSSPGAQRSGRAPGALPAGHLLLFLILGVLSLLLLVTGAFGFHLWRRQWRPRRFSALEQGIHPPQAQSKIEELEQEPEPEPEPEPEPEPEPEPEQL
Test: cell-based or functional assay
Kindly supply the reported IL-2 production, antigen-specific T lymphocyte stimulation test, 2 ug/ml, N = 1 values for the records listed here.
One number for each entry, in pg/mL.

Name the recorded IL-2 production, antigen-specific T lymphocyte stimulation test, 2 ug/ml, N = 1 of the item 556F6B8 mouse-human chimeric antibody (antibody, V domains shown, also called mAb123-556F6B8; 556F8B8) VH: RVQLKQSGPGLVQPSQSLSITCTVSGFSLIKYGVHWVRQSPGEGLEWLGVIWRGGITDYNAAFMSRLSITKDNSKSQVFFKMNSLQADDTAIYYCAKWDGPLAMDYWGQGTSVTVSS VL: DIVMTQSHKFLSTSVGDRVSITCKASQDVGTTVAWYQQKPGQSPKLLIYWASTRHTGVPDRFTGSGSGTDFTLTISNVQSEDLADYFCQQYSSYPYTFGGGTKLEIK in your answer.
818

Okay, next one:
Name the recorded IL-2 production, antigen-specific T lymphocyte stimulation test, 2 ug/ml, N = 1 of the item 405B8H3 mouse-human chimeric antibody (antibody, V domains shown, also called mAb103-405B8H3) VH: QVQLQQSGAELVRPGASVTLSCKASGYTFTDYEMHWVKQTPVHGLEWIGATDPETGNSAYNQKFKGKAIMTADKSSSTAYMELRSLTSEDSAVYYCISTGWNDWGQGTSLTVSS VL: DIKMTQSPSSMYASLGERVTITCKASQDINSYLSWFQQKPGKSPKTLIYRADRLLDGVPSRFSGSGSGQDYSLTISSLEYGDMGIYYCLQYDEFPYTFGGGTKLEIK in your answer.
876
